Entry source: patent US6355799B1

Test system: upland rice (Oryza sp., var. Tebonnet, RICE)
Assay: Pre-emerge test, crop safety
Type: in vivo
Settings: 250 g ai/ha; rating scale 0-100, 14 days after application
Field: Pre-emerge phytotoxicity rating, crop damage RICE. Provide a value for each of the compounds that follow.
A bare number is all that is needed in reply.

q: Report measured Pre-emerge phytotoxicity rating, crop damage RICE; entry is COc1c(Cl)cc(F)c(-n2c(=O)cc(C(F)(F)F)n(C)c2=O)c1CC(Cl)C(=O)OCC(F)(F)C(F)(F)C(F)(F)F (single isomer, unassigned) [14-24]
a: 20

q: Report measured Pre-emerge phytotoxicity rating, crop damage RICE; entry is COc1c(Cl)cc(F)c(-n2c(=O)cc(C(F)(F)F)n(C)c2=O)c1CC(Cl)C(=O)OCCOc1ccccc1 (single isomer, unassigned) [14-27]
a: 0

q: Report measured Pre-emerge phytotoxicity rating, crop damage RICE; entry is CCOC(=O)C(Br)Cc1c(OC)c(Cl)cc(F)c1-n1c(=O)cc(C(F)(F)F)n(C)c1=O (single isomer, unassigned) [14-33]
a: 10

q: Report measured Pre-emerge phytotoxicity rating, crop damage RICE; entry is COc1c(Cl)cc(F)c(-n2c(=O)cc(C(F)(F)F)n(C)c2=O)c1CC(C)(Cl)C(=O)OC(C(F)(F)F)C(F)(F)F (centres unmarked)
a: 30

q: Report measured Pre-emerge phytotoxicity rating, crop damage RICE; entry is COc1c(Cl)cc(F)c(-n2c(=O)cc(C(F)(F)F)n(C)c2=O)c1CC(Cl)C(=O)OCCC(C)C (single isomer, unassigned)
a: 0

q: Report measured Pre-emerge phytotoxicity rating, crop damage RICE; entry is COc1c(Cl)cc(F)c(-n2c(=O)cc(C(F)(F)F)n(C)c2=O)c1CC(Cl)C(=O)OCC(Br)CBr (single isomer, unassigned) [14-30]
a: 0

q: Report measured Pre-emerge phytotoxicity rating, crop damage RICE; entry is COc1c(Cl)cc(F)c(-n2c(=O)cc(C(F)(F)F)n(C)c2=O)c1CC(Cl)C(=O)OCC(C)C (single isomer, unassigned) [14-15]
a: 0

q: Report measured Pre-emerge phytotoxicity rating, crop damage RICE; entry is COc1c(Cl)cc(F)c(-n2c(=O)cc(C(F)(F)F)n(C)c2=O)c1CC(Cl)C(=O)OC(C)(C)C (centres unmarked)
a: 10

###

System: upland rice (Oryza sp., var. Tebonnet, RICE)
Experiment: Post-emerge test, crop safety
Assay type: in vivo
Details: post-emerge, 250 g ai/ha, crop damage rating 0-100 at 14 days after application
READOUT_LABEL: Post-emerge Herbicidal Activity RICE
A bare number is all that is needed in reply.

q: Report measured Post-emerge Herbicidal Activity RICE; entry is O=C(Nc1cc(Cl)ccc1N1C(=O)C2CCCCN2C1=O)c1ccc2ccccc2c1 (stereo not shown)
a: 15

q: Report measured Post-emerge Herbicidal Activity RICE; entry is COc1c(Cl)cc(F)c(N2C(=O)C3=C(CCCC3)C2=O)c1NC(=O)C=Cc1ccccc1
a: 30

q: Report measured Post-emerge Herbicidal Activity RICE; entry is Nc1c(O)c(Cl)cc(F)c1N1C(=O)C2CCCCN2C1=S (single isomer, unassigned) [12-3]
a: 5

q: Report measured Post-emerge Herbicidal Activity RICE; entry is Cc1cccc(COC(=O)Nc2c(C)c(Cl)cc(F)c2-n2c(=O)cc(C(F)(F)F)n(C)c2=O)c1
a: 80

q: Report measured Post-emerge Herbicidal Activity RICE; entry is O=C(Nc1cc(Cl)ccc1-n1c(=O)n2n(c1=O)CCCC2)c1ccc2ccccc2c1
a: 25

q: Report measured Post-emerge Herbicidal Activity RICE; entry is CCC(=O)Nc1c(Cl)cc(Cl)c(-n2nc(C)n(C(F)F)c2=O)c1N
a: 0

q: Report measured Post-emerge Herbicidal Activity RICE; entry is COc1c(Cl)cc(F)c(-n2ncc(C(F)(F)F)cc2=O)c1NC(=O)c1ccc2ccccc2c1
a: 60

q: Report measured Post-emerge Herbicidal Activity RICE; entry is C#CCOc1c(Cl)cc(F)c(N2C(=O)C3=C(CCCC3)C2=O)c1N
a: 80

q: Report measured Post-emerge Herbicidal Activity RICE; entry is COc1ccc(COC(=O)Nc2c(C)c(Cl)cc(F)c2-n2c(=O)cc(C(F)(F)F)n(C)c2=O)cc1OC
a: 60

q: Report measured Post-emerge Herbicidal Activity RICE; entry is Cc1ccc(COC(=O)Nc2c(C)c(Cl)cc(F)c2-n2c(=O)cc(C(F)(F)F)n(C)c2=O)cc1
a: 70

q: Report measured Post-emerge Herbicidal Activity RICE; entry is COc1cccc(COC(=O)Nc2c(C)c(Cl)cc(F)c2-n2c(=O)cc(C(F)(F)F)n(C)c2=O)c1
a: 80

q: Report measured Post-emerge Herbicidal Activity RICE; entry is Cc1c(Cl)cc(F)c(-n2c(=O)cc(C(F)(F)F)n(C)c2=O)c1NC(=O)OCc1ccc([N+](=O)[O-])cc1
a: 50

q: Report measured Post-emerge Herbicidal Activity RICE; entry is Nc1c(OC2CCCC2)c(Cl)cc(F)c1N1C(=O)C2=C(CCCC2)C1=O
a: 50

q: Report measured Post-emerge Herbicidal Activity RICE; entry is COc1c(Cl)cc(F)c(-n2nnn(CCCF)c2=O)c1NC(=O)COCc1ccccc1
a: 70

q: Report measured Post-emerge Herbicidal Activity RICE; entry is Cc1c(Cl)cc(F)c(-n2c(=O)cc(C(F)(F)F)n(C)c2=O)c1NC(=O)OCc1ccco1
a: 70

q: Report measured Post-emerge Herbicidal Activity RICE; entry is COc1ccccc1COC(=O)Nc1c(C)c(Cl)cc(F)c1-n1c(=O)cc(C(F)(F)F)n(C)c1=O
a: 75
